B1: Azoarcus group I ribozyme (parent)
chain: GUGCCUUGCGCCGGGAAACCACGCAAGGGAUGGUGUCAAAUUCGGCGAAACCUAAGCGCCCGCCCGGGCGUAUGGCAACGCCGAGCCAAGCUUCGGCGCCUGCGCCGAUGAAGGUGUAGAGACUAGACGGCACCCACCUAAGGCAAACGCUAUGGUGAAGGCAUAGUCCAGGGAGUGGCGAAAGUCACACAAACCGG

- Variants of: B1
- ASSAY: reverse-splicing fitness (ratio to wild type); higher = more active; in vitro selection; Mg2+ level not given
MEASUREMENT_LABEL: reverse-splicing fitness

VARIANT_NAME: C82U A111U A145G C150G C169U
RESULT_NUMBER: 0.00863

VARIANT_NAME: C82G A111C C169G U176G
RESULT_NUMBER: 0.00724

VARIANT_NAME: C82G A111C A120C A145G C150A C169A U176G
RESULT_NUMBER: 0.00862

VARIANT_NAME: C82A A120U A145G C150A U176G
RESULT_NUMBER: 0.00391

VARIANT_NAME: C82U A111C A120C C150G C169U
RESULT_NUMBER: 0.00884

VARIANT_NAME: C82A A111U A120U A145C C150G C169U U176A
RESULT_NUMBER: 0.00314

VARIANT_NAME: C82A A111U A120G C150U C169U U176C
RESULT_NUMBER: 0.0177

VARIANT_NAME: A111G A120C A145C C150U
RESULT_NUMBER: 0.298

VARIANT_NAME: C82G A145C C150A C169G
RESULT_NUMBER: 0.00807

VARIANT_NAME: C82G A111C A120C A145U C150A C169G U176A
RESULT_NUMBER: 0.0143

VARIANT_NAME: A111U C150G C169G
RESULT_NUMBER: 0.00998

VARIANT_NAME: C82A A111C A120U A145U C169G
RESULT_NUMBER: 0.00439

VARIANT_NAME: A111G A120U A145G C150A U176C
RESULT_NUMBER: 0.0581

VARIANT_NAME: C82G A120G A145U C169U U176C
RESULT_NUMBER: 0.0176

VARIANT_NAME: A111C A120G A145C C150G C169U U176C
RESULT_NUMBER: 0.013

VARIANT_NAME: C82G A120G A145G C150G C169G U176A
RESULT_NUMBER: 0.0108

VARIANT_NAME: C82U A145U C150G U176C
RESULT_NUMBER: 0.0567

VARIANT_NAME: C82G A111C A120C A145G C150A C169A
RESULT_NUMBER: 0.0122

VARIANT_NAME: C82A A111G A120G C169G
RESULT_NUMBER: 0.0125

VARIANT_NAME: C82U A111G A145C C150G C169A U176C
RESULT_NUMBER: 0.00614

VARIANT_NAME: C82U A111U A120U A145G C169U U176C
RESULT_NUMBER: 0.00323

VARIANT_NAME: C82G A111G A120G A145G C150G C169A
RESULT_NUMBER: 0.00957

VARIANT_NAME: C82A A111C A145G
RESULT_NUMBER: 0.258

VARIANT_NAME: A120C A145C C150A C169U
RESULT_NUMBER: 0.0518

VARIANT_NAME: C82A A111C A120G A145C C150A U176G
RESULT_NUMBER: 0.00559

VARIANT_NAME: A111G A120U A145C C150G
RESULT_NUMBER: 0.116

VARIANT_NAME: C82U A111U A145G C150U C169U U176A
RESULT_NUMBER: 0.0149

VARIANT_NAME: C82A A111U A120U A145G C150A U176C
RESULT_NUMBER: 0.00989

VARIANT_NAME: C82A A145C C150A C169U U176C
RESULT_NUMBER: 0.00759

VARIANT_NAME: C82A A111G A120C C150G C169U U176C
RESULT_NUMBER: 0.0107

VARIANT_NAME: C82G A111C A120C C169G U176C
RESULT_NUMBER: 0.0206

VARIANT_NAME: C82U A111C A120U A145G C169G U176G
RESULT_NUMBER: 0.0017

VARIANT_NAME: C82G A120G C150A C169A U176A
RESULT_NUMBER: 0.0208

VARIANT_NAME: C82G A111G A145U C150G C169U U176G
RESULT_NUMBER: 0.00577

VARIANT_NAME: C82U A120U C150U C169G U176A
RESULT_NUMBER: 0.0036

VARIANT_NAME: C82G A111U A120U A145C C150A U176C
RESULT_NUMBER: 0.00373

VARIANT_NAME: C82A A111G A145U C150U C169U
RESULT_NUMBER: 0.0118

VARIANT_NAME: C82G A111G A145U C150U U176G
RESULT_NUMBER: 0.0614

VARIANT_NAME: C82U A111U C150A U176A
RESULT_NUMBER: 0.0157

VARIANT_NAME: C82A A111C A120U A145U C150U C169G U176C
RESULT_NUMBER: 0.00338

VARIANT_NAME: C82U A111C A145C C150G C169A U176G
RESULT_NUMBER: 0.00657

VARIANT_NAME: C82U C150G C169G U176C
RESULT_NUMBER: 0.0054

VARIANT_NAME: C82A A111G A120G A145U C150G C169A U176A
RESULT_NUMBER: 0.00976

VARIANT_NAME: A120C C150A C169U
RESULT_NUMBER: 0.098

VARIANT_NAME: C82A A111U A120U C169G U176G
RESULT_NUMBER: 0.00236

VARIANT_NAME: C82U A111C A120C A145G C150A C169A
RESULT_NUMBER: 0.00917

VARIANT_NAME: C82G A111G A145U C150U
RESULT_NUMBER: 0.261

VARIANT_NAME: C82U A120C A145C C169A
RESULT_NUMBER: 0.00538

VARIANT_NAME: C82G A145G U176C
RESULT_NUMBER: 0.374

VARIANT_NAME: C82U A111C A145U C150A C169A U176G
RESULT_NUMBER: 0.00756

VARIANT_NAME: C82U A111U A145C C150U C169A U176C
RESULT_NUMBER: 0.00663

VARIANT_NAME: C82G A120U C150G C169U U176A
RESULT_NUMBER: 0.00369

VARIANT_NAME: C82G A111G A120C A145G C150U C169A U176G
RESULT_NUMBER: 0.00689

VARIANT_NAME: C82U A111U A120G A145U C150A C169U
RESULT_NUMBER: 0.0062

VARIANT_NAME: C82A A111C A145G C150G
RESULT_NUMBER: 0.0238

VARIANT_NAME: C82U A120C C169A
RESULT_NUMBER: 0.00809

VARIANT_NAME: C82G A111U A120C A145U C169G U176G
RESULT_NUMBER: 0.00535

VARIANT_NAME: C82A C150U C169G
RESULT_NUMBER: 0.0106

VARIANT_NAME: C82U A120C A145C
RESULT_NUMBER: 0.149

VARIANT_NAME: C82A A111G A120U C150G C169A U176C
RESULT_NUMBER: 0.00609

VARIANT_NAME: C82G A111U A120C A145G C150U C169A U176C
RESULT_NUMBER: 0.0177

VARIANT_NAME: A120C C169A U176C
RESULT_NUMBER: 0.0233

VARIANT_NAME: C82U A111C C150G C169U U176C
RESULT_NUMBER: 0.0111

VARIANT_NAME: C82U A111U A120G A145C U176G
RESULT_NUMBER: 0.00374

VARIANT_NAME: A111C A120C A145C U176C
RESULT_NUMBER: 0.197

VARIANT_NAME: C82U A111C A120C C150G C169A U176C
RESULT_NUMBER: 0.00876

VARIANT_NAME: A111U A145U C169A U176G
RESULT_NUMBER: 0.00631

VARIANT_NAME: C82U A111G A120G A145G C150U C169A U176C
RESULT_NUMBER: 0.0148

VARIANT_NAME: C82G A111C A120C A145G C150A C169A U176C
RESULT_NUMBER: 0.0188

VARIANT_NAME: A111C A120U A145G C150G C169A
RESULT_NUMBER: 0.00873

VARIANT_NAME: A111G A120C C150G C169U U176G
RESULT_NUMBER: 0.0044

VARIANT_NAME: C82U A120C A145U C150A U176G
RESULT_NUMBER: 0.00478

VARIANT_NAME: A120U A145G C150G C169U U176C
RESULT_NUMBER: 0.0205

VARIANT_NAME: C82G A111U A145U C150A C169A U176A
RESULT_NUMBER: 0.0149

VARIANT_NAME: A111G A145G C150A C169G U176C
RESULT_NUMBER: 0.0276

VARIANT_NAME: C82A A120G A145G C150A C169U
RESULT_NUMBER: 0.00961

VARIANT_NAME: C82U A111U A120C A145C C150U C169A U176G
RESULT_NUMBER: 0.00569

VARIANT_NAME: C82A A111C A120G A145U C150U U176C
RESULT_NUMBER: 0.0188

VARIANT_NAME: C82A A111G
RESULT_NUMBER: 0.435

VARIANT_NAME: C82U A145C C150U C169U U176A
RESULT_NUMBER: 0.0121

VARIANT_NAME: C82U A111G A120U A145G C169G U176G
RESULT_NUMBER: 0.00169
